# Target: human ether-à-go-go-related gene (hERG) potassium channel (human);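 further: peak tail current of the secondary pulse compared with the same well before compound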
# Sequence (Q12809 whole entry, looked up): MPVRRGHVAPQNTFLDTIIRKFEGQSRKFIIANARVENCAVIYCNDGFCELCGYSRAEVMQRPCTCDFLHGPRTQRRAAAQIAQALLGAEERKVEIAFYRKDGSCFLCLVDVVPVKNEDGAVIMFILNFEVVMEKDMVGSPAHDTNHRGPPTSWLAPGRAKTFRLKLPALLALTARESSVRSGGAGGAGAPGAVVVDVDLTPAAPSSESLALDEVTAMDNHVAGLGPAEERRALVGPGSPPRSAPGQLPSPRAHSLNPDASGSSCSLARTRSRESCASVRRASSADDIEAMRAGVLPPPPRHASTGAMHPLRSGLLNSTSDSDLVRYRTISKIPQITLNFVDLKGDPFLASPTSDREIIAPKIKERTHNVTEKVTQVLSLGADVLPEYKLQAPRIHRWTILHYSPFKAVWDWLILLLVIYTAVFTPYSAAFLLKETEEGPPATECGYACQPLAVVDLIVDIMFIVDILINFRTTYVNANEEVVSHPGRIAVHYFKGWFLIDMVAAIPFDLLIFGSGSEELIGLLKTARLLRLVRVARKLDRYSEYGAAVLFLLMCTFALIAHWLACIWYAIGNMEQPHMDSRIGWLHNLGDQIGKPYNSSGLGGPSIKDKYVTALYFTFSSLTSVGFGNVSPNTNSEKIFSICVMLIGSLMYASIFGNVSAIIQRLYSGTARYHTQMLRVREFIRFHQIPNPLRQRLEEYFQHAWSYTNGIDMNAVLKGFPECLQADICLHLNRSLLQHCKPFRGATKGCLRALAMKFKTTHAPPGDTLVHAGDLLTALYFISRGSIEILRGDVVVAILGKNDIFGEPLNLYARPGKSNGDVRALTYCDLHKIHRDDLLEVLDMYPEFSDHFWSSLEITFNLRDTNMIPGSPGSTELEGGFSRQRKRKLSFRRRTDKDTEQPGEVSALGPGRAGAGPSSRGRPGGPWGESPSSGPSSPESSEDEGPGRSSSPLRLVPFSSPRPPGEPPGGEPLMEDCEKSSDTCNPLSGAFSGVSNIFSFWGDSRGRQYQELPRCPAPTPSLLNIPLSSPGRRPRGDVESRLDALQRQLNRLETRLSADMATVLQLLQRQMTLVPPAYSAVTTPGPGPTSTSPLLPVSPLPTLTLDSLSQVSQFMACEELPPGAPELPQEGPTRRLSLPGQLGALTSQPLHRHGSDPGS
# Assay Summary: primary screen, population patch clamp on CHO cells stably expressing hERG; higher = less effect of the substance
# Procedure: Briefly, Chinese hamster ovary (CHO) cells stably expressing the hERG channel were dislodged from tissue culture flasks and dispensed into PPC plates. […] During the recording, background leak currents were estimated by a 100 ms step to -80 mV from an initial holding potential of -70 mV and subtracted from the subsequent current measurement. The campaign was conducted in two phases using slight differences in recording protocol. […]
Hit rate of the full screen: of about 310,000 compounds, about 14,000 (4.5%) showed an effect of 50% or more. The effect is printed as a negative number. The list comes from a sample in which strong results are over-represented; it also holds close analogues and randomly drawn compounds.
Let's look at some molecules and their measured hERG current change (%, negative = inhibition) at 10uM.
Endpoint Name: hERG current change (%, negative = inhibition) at 10uM (%)

Molecule | Observed Result
COc1ccc(OC)c(-c2nc(C(=O)NC3CCN(Cc4ccccc4)CC3)cc3c2[nH]c2ccccc23)c1 | -43.5
COc1ccccc1-c1nc(C(=O)NCC2CCCO2)cc2c1[nH]c1ccccc12 (stereo not drawn) | -29
COc1cc(-c2nc(C(=O)NC3CCN(Cc4ccccc4)CC3)cc3c2[nH]c2ccccc23)cc(OC)c1OC | -59.6
COc1cccc(-c2nc(C(=O)NCCCN3CCOCC3)cc3c2[nH]c2ccccc23)c1 | -65.3
COc1cc(-c2nc(C(=O)NC3CCCCC3)cc3c2[nH]c2ccccc23)cc(OC)c1OC | -8.67
COc1cccc(C2c3c(oc4ccc(F)cc4c3=O)C(=O)N2CCN2CCOCC2)c1OC (stereo not drawn) | 4.45
COC(=O)c1cccc(N2C(=O)c3ccccc3S2(=O)=O)c1 | -9.36
COc1ccc(-c2nc(C(=O)NCCCN3CCOCC3)cc3c2[nH]c2ccccc23)cc1OC | -72.2
CCOC(=O)c1ccccc1CN1C(=O)c2ccccc2S1(=O)=O | -11.1

----------
Let's look at some molecules and their measured hERG current change (%, negative = inhibition) at 10uM.
# Target: human ether-à-go-go-related gene (hERG) potassium channel (human);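 further: peak tail current of the secondary pulse compared with the same well before compound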
# Assay Summary: primary screen, population patch clamp on CHO cells stably expressing hERG; higher = less effect of the substance
# Description: Briefly, Chinese hamster ovary (CHO) cells stably expressing the hERG channel were dislodged from tissue culture flasks and dispensed into PPC plates. […] During the recording, background leak currents were estimated by a 100 ms step to -80 mV from an initial holding potential of -70 mV and subtracted from the subsequent current measurement. The campaign was conducted in two phases using slight differences in recording protocol. […]
Out of some 310,000 compounds screened, about 14,000 (4.5%) showed an effect of 50% or more. The effect is printed as a negative number. The sample as a whole holds a higher share of strong results than the screen did.
Endpoint Name: hERG current change (%, negative = inhibition) at 10uM (%)

Molecule | Observed Result
O=c1[nH]c(O)c(C=Nc2ccc(F)c(Cl)c2)c(=O)[nH]1 | 7.3
O=C(Nc1cccnc1)Nc1ccc(F)c(Cl)c1 | -36.8
Cc1ccc(/C=N/N2CCN(C3c4ccccc4-c4ccccc43)CC2)s1 | 0.486
O=C(COc1cccc(F)c1)NNC(=O)Cc1ccc(S(=O)(=O)N2CCOCC2)s1 | -11.9
O=C(Cc1csc(NC(=O)Nc2ccc(Cl)cc2)n1)NCc1ccccn1 | -44.7
Cc1ccc(C(=O)COC(=O)c2ccccc2NC(=O)c2ccccc2)cc1[N+](=O)[O-] | 4.55
Cc1ccc(-c2cn3nc(C)c(C)nc3n2)cc1 | -6.47
CCOC(=O)C1=C(COc2ccccc2)NC(=O)NC1c1ccc2ccccc2c1 (stereo not shown) | -12.3
O=C(CN1C(=O)COc2ccccc21)NCCCN1CCN(c2ccccc2F)CC1 | -10.7
COc1ccccc1NC(=O)Nc1nc(CC(=O)NCc2cccnc2)cs1 | -13.3
